The measured values listed here are drawn from ChEMBL document CHEMBL1122101.

System: Rattus norvegicus
procedure_text: Evaluated for biodistribution in rat blood after 6 min of administration
Type: ADME, organism-based
experimental_setup: in vivo, 0.1 h
Below is a list of entries, each paired with its recorded Biodistribution value.
Express the result in % but write the number alone.

* CC(C)NCc1ccc(I)c(CNC(C)C)c1 | 1.33
* Ic1ccc(CN2CCCCC2)cc1CN1CCCCC1 | 0.77
* CN(C)Cc1ccccc1I | 0.35

Next, consider the following compound.
Quick check: Biodistribution on Rattus norvegicus, item "CN(C)Cc1ccc(I)c(CN(C)C)c1" ?
0.42

----------
Test system: Rattus norvegicus
procedure_text: Evaluated for biodistribution in rat liver after 6 min of administration
Format: ADME, organism-based
experimental_setup: in vivo, 0.1 h
experimental_readout: Biodistribution (%)
State just the number; it will be interpreted in %.

Take a look at these entries with their results.
- CN(C)Cc1ccccc1I: 0.45
- CN(C)Cc1ccc(I)c(CN(C)C)c1: 7.81
- CC(C)NCc1ccc(I)c(CNC(C)C)c1: 5.17

Now for another entry.
Reported Biodistribution, compound "Ic1ccc(CN2CCCCC2)cc1CN1CCCCC1" : ____
9.2
